# TGT: LHRH receptor (LHRH binding sites) on EFO-27 human ovarian cancer cells (human)
# ASSAY METHOD TEXT: competition with [125I-Tyr8]BRU-2477, EFO-27 cells
pEC50: −log10 of the molar value. Non-standard residues stand in square brackets, D forms with d. Primed or numbered codes have the meaning given here. azaGly′ = aza-glycine residue at the C-terminus, with NH2; Bpa = N[C@@H](Cc1ccc(C(=O)c2ccccc2)cc1)C(=O)O; d2Nal = N[C@H](Cc1ccc2ccccc2c1)C(=O)O; DO3A10CM = not defined here; Ampa4 = not defined here; Mogly = not defined here; azaGly = NNC(=O)O
QUANTITY: pEC50

Example results:
INSERT INTO results (binder, quantity, assay_value) VALUES
  ('DO3A10CM-G[Mogly]HWSH[dR]W[Bpa]P[azaGly]-NH2 (reading uncertain) [BRU-2796]', 'pEC50', 6.47),
  ('XRWSHXWXXX (N-terminal DO3A10CM; Dnal2 at 1; Darg at 6; Bpa4 at 8; Thz at 9; azaGly-NH2 at 10) [BRU-3072]', 'pEC50', 6.80),
  ('GXRWSHXWXPX (N-terminal DO3A10CM; Gly linker before 1; Tpi at 1; Darg at 6; Bpa4 at 8; azaGly-NH2 at 10) [BRU-3053]', 'pEC50', 6.49),
  ('DO3A10CM-[d2Nal][Ampa4]WSH[dR]W[Bpa]P[azaGly′]-NH2 (reading uncertain; also: printed as DO3A10CM-Dnal2-Ampa4-Trp-Ser-His-Darg-Trp-Bpa4-Pro-azaGly-NH2) [BRU-3059]', 'pEC50', 6.39),
  ('XRWSHXWXPX (N-terminal DO3A10CM; Dnal2 at 1; Darg at 6; Bpa4-psi(CH2N)-Pro reduced amide isostere at 8-9; azaGly-NH2 at 10) [BRU-3081]', 'pEC50', 6.52);

(A) XRWSHXWXP (Sar at 1; Darg at 6; Bpa4 at 8; C-terminal Maz4dahp17 linker carrying DO3A10CM) [BRU-3045]
(B) XRWSHXWXXX (N-terminal DO3A10CM; Dnal2 at 1; Darg at 6; Bpa4 at 8; Flp4 at 9; azaGly-NH2 at 10) [BRU-2994]
(C) XRXSHXWXPX (N-terminal DO3A10CM; Dnal2 at 1; Amfe4 at 3; Darg at 6; Bpa4 at 8; azaGly-NH2 at 10) [BRU-3107]
Task: Rank entries according to their pEC50, from the largest number down. Please respond by ranking the labels in the order requested.
Output: A, C, B
(A: 6.68, C: 6.42, B: 6.22)

(1) XRWSRXWXPX (N-terminal DO3A10CM; Dnal2 at 1; Darg at 6; Bpa4 at 8; azaGly-NH2 at 10) [BRU-2959]
(2) XXRWSHXWXPX (N-terminal DO3A10CM; Gly-Abz4 linker before 1; Dnal2 at 1; Darg at 6; Bpa4 at 8; azaGly-NH2 at 10) [BRU-3002]
Task: Select the item whose pEC50 value is smaller, choosing between 1 and 2 . Give the label under which the chosen entry appears.
Output: 2
